# Tested on: U251 CNS
# experimental_protocol: NCI-60 one-dose screen, 48 h
# applied_conditions: 10 µM unless noted
The panel holds about 83,000 compounds, 20% with a hit somewhere; the sample as a whole holds those more often. Active and inactive are the calls of the source. The calls were made as follows: active = growth percent below 10; inactive = the rest.
Please answer using one outcome listed in active, inactive

# compound, label
measured = [
    ("CC1=C([Se]CC(OC(=O)[C@@H](CSSC(C)(C)C)NC(=O)C(C)(C)C)C(=O)NCCCCCC(=O)OCc2ccccc2)C(=O)c2ccccc2C1=O (some centres undefined)", "active"),
    ("Nc1ccccc1-c1ccn[nH]1", "inactive"),
    ("COC(=O)[C@H](Cc1cn(C)cn1)NC(=O)[C@@H](NC(=O)Nc1cc(C(F)(F)F)cc(C(F)(F)F)c1)C(C)C", "active"),
    ("C1=C(Cc2ccccc2)n2cnc3ncnc(c32)S1", "inactive"),
]

Request: Short answer needed: outcome of this test for "CCCCCCCCCCCCCCCCNC(=O)Nc1ccc2ccccc2c1" ?
Result: inactive

Request: For "Cc1cnc2nc(-c3ccc(N(C)C)cc3)cn2c1" , what call appears in the results of this test?
Result: inactive

Request: Which outcome did this test record for the compound "CN(C)CCC(=O)Nc1ccc(-n2cc(-c3cccc(NC(=S)Nc4cccc(-c5cn(-c6ccc(NC(=O)CCN(C)C)cc6)nn5)c4)c3)nn2)cc1" ?
Result: inactive

Request: Name the outcome recorded for "COc1ccc(NC(=O)c2ccc(-c3ccccc3)cc2)c(C(N)=O)c1" in the assay.
Result: inactive

Request: Could you check what this test reported for "[N-]=[N+]=NCc1cccc(/C(O)=C/C(=O)C(=O)O)c1" ?
Result: inactive

----------
# Tested on: UACC-257 melanoma
# experimental_protocol: NCI-60 one-dose screen, 48 h
# applied_conditions: 10 µM unless noted
About 83,000 compounds went through this panel and 20% of them were active in at least one assay; those are over-represented in the sample as a whole. The source made the active and inactive calls. The calls were made as follows: active = growth percent below 10; inactive = the rest.
Entry note: the call must match one of active, inactive

# compound, measured_on, label
data = [
    ("Oc1ccccc1/C=N/N1CCCCCC1", "UACC-257 melanoma", "inactive"),
    ("O=C(/C=C/c1cccc(Nc2ccnc3cc(Cl)ccc23)c1)c1ccc(Cl)cc1", "UACC-257 melanoma", "inactive"),
    ("O=C(N/N=C/c1cccc(O)c1)c1ccc(C(F)(F)F)nc1Nc1cccc(C(F)(F)F)c1", "UACC-257 melanoma", "inactive"),
    ("COc1cc2c(cc1OC)C(=O)/C(=C/c1cccc(OCC(=O)c3ccccc3)c1)C2", "UACC-257 melanoma", "inactive"),
    ("CC(C)Cn1cnc2c(NCn3nc(-c4cc(Cl)cc(Cl)c4Cl)n(/N=C/c4ccc(Cl)cc4)c3=S)nc3ccccc3c21", "UACC-257 melanoma", "inactive"),
]

Request: // param item: "CCCCCN1C(=O)CCC1=O" ; yields the recorded call
Result: inactive

Request: Hi team, can someone confirm the assay call for "C/C=C(/C(=C/C)c1ccc(O)cc1)c1ccc(O)cc1" ?
Result: inactive

Request: Lab log entry: "COc1ccc(CC(=O)Nc2nn3c(-c4cc(C(F)(F)F)cc(C(F)(F)F)c4)nnc3s2)cc1" — outcome as called in the assay?
Result: inactive

----------
Parameter: growth. Scope: all listed entries.
# System: U251 CNS
# experimental_protocol: NCI-60 one-dose screen, 48 h (100 = growth as untreated, 0 = no growth, -100 = all killed)
# applied_conditions: 10 µM unless noted
# Experimental: Growth inhibition of the U251 human tumor cell line is measured as a screen for anti-cancer activity. Cells are grown in 96 well plates and exposed to the test compound for 48 hours. Compounds are tested at a single concentration, which is 10^-5 M for most compounds. The reported endpoint is percent growth (GI% or GIPRCNT), where numbers from 0 - 100% represent growth inhibition, and numbers from -100% - 0 represent cell death. For example, a value of 40 represents 60% growth inhibition. […]
Compounds without any hit were thinned out: in the full panel of roughly 83,000, 20% have a hit. Calls of active or inactive are those of the source. How the source made its calls: active means growth percent below 10; inactive means the rest.

# compound, growth
data = [
    ("Cc1cc(C)nc(NS(=O)(=O)c2ccc(Nc3nc4nc(SCc5ccccc5)nc(-c5ccc(O)cc5)c4c(=O)[nH]3)cc2)n1", "94.6% (inactive)"),
    ("Cc1cc(C)cc(S(=O)(=O)n2ccc(-c3ccc4c(c3)CCC(C)(C)O4)n2)c1", "85.6% (inactive)"),
    ("COc1cccc(/C=N\\NC(=O)c2ccncc2)c1O", "31.6% (inactive)"),
    ("COc1cc(/C=N/NC(=O)c2ccc(C(F)(F)F)nc2Nc2cc(Cl)ccc2C)cc(OC)c1OC", "87.4% (inactive)"),
    ("c1ccc(-c2nc(Nc3nccnn3)c3ccccc3n2)cc1", "92.9% (inactive)"),
]

Result for COc1cc(/C=C/C(=O)C(C(=O)/C=C/c2ccc(OC(=O)CCNC34CC5CC(CC(C5)C3)C4)c(OC)c2)C(=O)CCNC23CC4CC(CC(C4)C2)C3)ccc1OC(=O)CCNC12CC3CC(CC(C3)C1)C2 (stereo not drawn) , tested on U251 CNS, growth: 7.57% (active)

Form field, growth with U251 CNS, item "C[C@@H]1[C@H]2[C@H](C=C3[C@@H]4CC[C@H]5Cc6nc7c(nc6C[C@]5(C)[C@H]4C[C@@H](O)[C@@]32C)C[C@@H]2CC[C@H]3C4=C[C@@H]5O[C@@]6(CC[C@](C)(CO)O6)[C@@H](C)[C@@]5(O)[C@@]4(C)[C@H](O)C[C@@H]3[C@@]2(C)C7)O[C@]12CCC(C)(C)O2" : 7.53% (active)

Record for "Cc1cc(C(=O)Nc2ccc3cc(CN4CCOCC4)ccc3n2)c(C)n1-c1ccccc1" under target or system U251 CNS: growth reported as 46.3% (inactive)

// compound "COc1cccc(C=Nc2cc(C(C)C)c(O)cc2C)c1O" , assay U251 CNS, growth value: 96% (inactive)

Record for "COCCOCCOCCOCCOc1ccc2c(c1)C(=O)c1nc3ncccc3c(=O)n1-2" under target or system U251 CNS: growth reported as -63.6% (active)

Readout growth for "FC(F)(F)c1cc(-c2nnc3n2N=C(N2CCCC2)CS3)cc(C(F)(F)F)c1" , test system U251 CNS, was 37.6% (inactive)

Entry "NS(=O)(=O)c1ccc(-n2ncc3c(NC4CCCCC4)ncnc32)cc1" , U251 CNS data, growth value: 96.3% (inactive)
